target or system: BRAFV600E full-length (amino acids 2-766) (Homo sapiens, UniProt P15056, V600E)
Construct: His6-tagged BRAFV600E full-length (amino acids 2-766); His6; made in house; host or cells: baculovirus expression system (insect cells)
Sequence (P15056 2-766 V600E): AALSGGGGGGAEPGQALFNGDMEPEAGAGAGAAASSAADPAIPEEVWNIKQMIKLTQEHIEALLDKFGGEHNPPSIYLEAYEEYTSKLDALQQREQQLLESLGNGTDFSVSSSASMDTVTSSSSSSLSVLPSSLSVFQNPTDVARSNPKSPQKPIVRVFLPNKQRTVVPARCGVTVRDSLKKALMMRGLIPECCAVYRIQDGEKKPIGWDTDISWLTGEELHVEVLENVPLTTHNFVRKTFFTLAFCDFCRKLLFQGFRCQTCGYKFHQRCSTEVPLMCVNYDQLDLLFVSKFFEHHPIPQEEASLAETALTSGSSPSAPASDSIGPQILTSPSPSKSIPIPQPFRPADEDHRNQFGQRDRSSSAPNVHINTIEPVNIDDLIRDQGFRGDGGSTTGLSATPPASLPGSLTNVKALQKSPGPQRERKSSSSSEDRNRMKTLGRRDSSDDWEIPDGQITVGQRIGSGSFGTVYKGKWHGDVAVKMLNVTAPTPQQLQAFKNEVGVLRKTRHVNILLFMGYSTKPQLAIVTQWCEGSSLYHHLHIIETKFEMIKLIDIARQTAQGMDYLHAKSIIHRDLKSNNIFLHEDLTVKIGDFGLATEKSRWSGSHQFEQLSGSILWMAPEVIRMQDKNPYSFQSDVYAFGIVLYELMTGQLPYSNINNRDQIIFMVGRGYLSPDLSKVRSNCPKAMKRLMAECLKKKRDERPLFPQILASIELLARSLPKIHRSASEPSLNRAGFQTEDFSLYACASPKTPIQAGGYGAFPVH
assay overview: B-Raf Accelerated MEK ATPase assay (BRAMA)
Type: biochemical
condition notes: B-Raf Activity, Table 1a; highest pIC50 for the one or more runs, categorized
test readout: IC50

compound: CS(=O)(=O)N1CCC(Nc2nccc(-c3sc(C4CCC4)nc3-c3ccc(F)c(NS(=O)(=O)c4cc(F)ccc4F)c3)n2)CC1 [Example 80]
test readout: IC50
observed value: < 100 nM
//
compound: CC(C)(C)c1nc(-c2cccc(NS(=O)(=O)c3cc(F)ccc3F)c2F)c(-c2ccnc(CCCl)n2)s1 [Example 217]
test readout: IC50
observed value: < 100 nM
//
compound: CC(C)(C)c1nc(-c2cccc(NS(=O)(=O)c3cc(F)ccc3F)c2F)c(-c2ccncn2)s1 [Example 66]
test readout: IC50
observed value: < 100 nM
//
compound: CC(C)CNc1nccc(-c2sc(C3CCOCC3)nc2-c2cccc(NS(=O)(=O)c3cc(F)ccc3F)c2F)n1 [Example 67]
test readout: IC50
observed value: < 100 nM
//
compound: CC(C)c1nc(-c2cccc(NS(=O)(=O)c3cccs3)c2)c(-c2ccnc(NCCS(C)(=O)=O)n2)s1 [Example 31]
test readout: IC50
observed value: < 100 nM
//
compound: COc1c(NS(=O)(=O)c2c(F)cccc2F)cccc1-c1nc(C(C)C)sc1-c1ccnc(NCC(C)C)n1 [Example 44]
test readout: IC50
observed value: < 100 nM
//
compound: Nc1nccc(-c2sc(C3CCOCC3)nc2-c2ccc(F)c(NS(=O)(=O)c3cc(F)ccc3F)c2)n1 [Example 68]
test readout: IC50
observed value: 100 to 1000 nM
//
compound: Nc1nccc(-c2sc(N3CCOCC3)nc2-c2cccc(NS(=O)(=O)c3cccnc3)c2F)n1 [Example 61]
test readout: IC50
observed value: < 100 nM
//
compound: CC(C)c1nc(-c2ccc(F)c(NS(=O)(=O)c3c(F)cccc3F)c2)c(-c2ccnc(NCCN(C)C)n2)s1 [Example 161]
test readout: IC50
observed value: 100 to 1000 nM
//
compound: Cc1ccc(F)cc1S(=O)(=O)Nc1cccc(-c2nc(C(C)(C)C)sc2-c2ccnc(N)n2)c1F [Example 53]
test readout: IC50
observed value: < 100 nM
//
compound: CC(C)(C)c1nc(-c2cccc(NS(=O)(=O)c3cc(F)ccc3F)c2F)c(-c2ccnc(NCCCN3CCCC3=O)n2)s1 [Example 96]
test readout: IC50
observed value: < 100 nM
//
compound: CS(=O)(=O)CCNc1nccc(-c2sc(N3CCOCC3)nc2-c2cccc(NS(=O)(=O)c3c(F)cccc3F)c2F)n1 [Example 14]
test readout: IC50
observed value: < 100 nM
//
compound: CC(C)CNc1nccc(-c2sc(N3CCOCC3)nc2-c2cccc(NS(=O)(=O)c3ccco3)c2F)n1 [Example 43]
test readout: IC50
observed value: < 100 nM
//
compound: CCNc1nccc(-c2sc(C(C)C)nc2-c2ccc(F)c(NS(=O)(=O)c3c(F)cccc3F)c2)n1 [Example 9]
test readout: IC50
observed value: 100 to 1000 nM
//
compound: CC(C)CNc1nccc(-c2sc(C3CCOCC3)nc2-c2ccc(F)c(NS(=O)(=O)c3cc(F)ccc3F)c2)n1 [Example 69]
test readout: IC50
observed value: < 100 nM
//
compound: CC(C)c1nc(-c2ccc(F)c(NS(=O)(=O)c3cc(F)ccc3F)c2)c(-c2ccnc(NC3CC(C)(C)N(C)C(C)(C)C3)n2)s1 [Example 132]
test readout: IC50
observed value: < 100 nM
//
compound: CC(C)c1nc(-c2ccc(F)c(NS(=O)(=O)c3c(F)cccc3F)c2)c(-c2ccnc(NCCS(C)(=O)=O)n2)s1 [Example 8]
test readout: IC50
observed value: < 100 nM
//
compound: CC(C)c1nc(-c2ccc(F)c(NS(=O)(=O)c3ccccc3F)c2)c(-c2ccnc(N[C@H]3CC[C@H](NS(C)(=O)=O)CC3)n2)s1 [Example 140]
test readout: IC50
observed value: < 100 nM
//
compound: Nc1nccc(-c2sc(N3CCOCC3)nc2-c2cccc(NS(=O)(=O)c3c(F)cccc3F)c2F)n1 [Example 59]
test readout: IC50
observed value: < 100 nM
//
compound: CC(C)CNc1nccc(-c2sc(C(C)C)nc2-c2cccc(NS(=O)(=O)c3cccnc3)c2)n1 [Example 155]
test readout: IC50
observed value: < 100 nM
//
compound: CC(C)(C)c1nc(-c2cccc(NS(=O)(=O)c3cc(F)ccc3F)c2F)c(-c2ccnc(NCC(F)F)n2)s1 [Example 177]
test readout: IC50
observed value: < 100 nM
//
compound: CC(C)c1nc(-c2ccc(F)c(NS(=O)(=O)c3c(F)cccc3F)c2)c(-c2ccnc(NCCC(F)(F)F)n2)s1 [Example 180]
test readout: IC50
observed value: < 100 nM
//
compound: CC(=O)NCCNc1nccc(-c2sc(C(C)C)nc2-c2ccc(F)c(NS(=O)(=O)c3cc(F)ccc3F)c2)n1 [Example 186]
test readout: IC50
observed value: < 100 nM
//
compound: CS(=O)(=O)N1CCN(c2nc(-c3cccc(NS(=O)(=O)c4c(F)cccc4F)c3F)c(-c3ccnc(N)n3)s2)CC1 [Example 100]
test readout: IC50
observed value: < 100 nM
//
compound: CNc1nccc(-c2sc(C(C)C)nc2-c2ccc(F)c(NS(=O)(=O)c3c(F)cccc3F)c2)n1 [Example 119]
test readout: IC50
observed value: 100 to 1000 nM
//
compound: Nc1nccc(-c2oc(N3CCCC3)nc2-c2cccc(NS(=O)(=O)c3c(F)cccc3F)c2)n1 [Example 110]
test readout: IC50
observed value: 100 to 1000 nM
//
compound: CC(C)(C)c1nc(-c2cccc(NS(=O)(=O)c3c(F)cccc3F)c2F)c(-c2ccnc(NCCCS(C)(=O)=O)n2)s1 [Example 12]
test readout: IC50
observed value: < 100 nM
//
compound: CC(C)c1nc(-c2ccc(F)c(NS(=O)(=O)c3cc(F)ccc3F)c2)c(-c2ccnc(NCCN3CCCCC3)n2)s1 [Example 131]
test readout: IC50
observed value: < 100 nM
